Property: pEC50; scope: individual molecules
# Tested on: Human immunodeficiency virus 1
# Assay summary: Antiviral activity against HIV-1 harboring wild type integrase infected in human HOS cells pretreated with compound for 3 hrs by single-round HIV-1 infectivity assay in presence of 15% fetal bovine serum
# Type: functional, organism-based
# Condition summary: Human immunodeficiency virus 1, HOS
Answer as the number alone; pEC50 is minus log10 of concentration in mol/L.

See these solved cases before continuing.
Entry smiles	pEC50
CC(=O)OCCNc1c(C(=O)NCc2ccc(F)cc2F)c(=O)n(O)c2ncccc12	8.35
COC(=O)CNc1c(C(=O)NCc2ccc(F)cc2F)c(=O)n(O)c2ncccc12	8.52

Field: next molecule
Exercise: Which measured pEC50 belongs to `Nc1c(C(=O)NCc2ccc(F)cc2F)c(=O)n(O)c2ncccc12` , tested on Human immunodeficiency virus 1?
Solution: 8.96

---

# Assay summary: Retention time of the compound by HPLC analysis
# Type: physicochemical
Experimental readout: Retention_time (min)
Just the number in min, nothing appended.

See these solved cases before continuing.
Entry smiles	Experimental readout	Experimental result
O=C(NCc1ccc(F)cc1F)c1c(NCCO)c2cccnc2n(O)c1=O	Retention_time	21.6
COC(=O)[C@H](CO)Nc1c(C(=O)NCc2ccc(F)cc2F)c(=O)n(O)c2ncccc12	Retention_time	15.9
Nc1ccc(-c2ccc(Nc3c(C(=O)NCc4ccc(F)cc4F)c(=O)n(O)c4ncccc34)cc2)cc1	Retention_time	15.6

Exercise: Data request, read-out Retention_time, for `COC(=O)[C@@H](CO)Nc1c(C(=O)NCc2ccc(F)cc2F)c(=O)n(O)c2ncccc12`
Solution: 20.5

Exercise: Now the molecule `NCCNc1c(C(=O)NCc2ccc(F)cc2F)c(=O)n(O)c2ncccc12`
Solution: 25.9

Exercise: Now the molecule `CC(=O)OCCNc1c(C(=O)NCc2ccc(F)cc2F)c(=O)n(O)c2ncccc12`
Solution: 23.6

Exercise: Now the molecule `CCOC(=O)[C@@H]1CCCN1c1c(C(=O)NCc2ccc(F)cc2F)c(=O)n(O)c2ncccc12`
Solution: 12.5

Exercise: Now the molecule `O=C(NCc1ccc(F)cc1F)c1c(N2CCOCC2)c2cccnc2n(O)c1=O`
Solution: 20.5

---

Property: pEC50; scope: individual molecules
# System: Human immunodeficiency virus 1
# Assay summary: Antiviral activity against HIV-1 harboring wild type integrase infected in human HOS cells pretreated with compound for 3 hrs by single-round HIV-1 infectivity assay
# Format: functional, organism-based
# Condition summary: Human immunodeficiency virus 1, HOS
Answer as the number alone; pEC50 is minus log10 of concentration in mol/L.

Entry smiles	Experimental readout	Experimental result
O=C(NCc1ccc(F)cc1F)c1c(NC2CCCCCC2)c2cccnc2n(O)c1=O	pEC50	7.92
O=C(NCc1ccc(F)cc1F)c1c(NCCCCc2ccccc2)c2cccnc2n(O)c1=O	pEC50	7.30
N#Cc1ccc(-c2ccc(Nc3c(C(=O)NCc4ccc(F)cc4F)c(=O)n(O)c4ncccc34)cc2)cc1	pEC50	6.91
CNc1c(C(=O)NCc2ccc(F)cc2F)c(=O)n(O)c2ncccc12	pEC50	8.51

Exercise: Data request, read-out pEC50, for `CC(C)Nc1c(C(=O)NCc2ccc(F)cc2F)c(=O)n(O)c2ncccc12`
Solution: 8.14

---

# Subject of test: Human immunodeficiency virus type 1 integrase (Human immunodeficiency virus 1, UniProt Q7ZJM1)
# Sequence (Q7ZJM1 whole entry): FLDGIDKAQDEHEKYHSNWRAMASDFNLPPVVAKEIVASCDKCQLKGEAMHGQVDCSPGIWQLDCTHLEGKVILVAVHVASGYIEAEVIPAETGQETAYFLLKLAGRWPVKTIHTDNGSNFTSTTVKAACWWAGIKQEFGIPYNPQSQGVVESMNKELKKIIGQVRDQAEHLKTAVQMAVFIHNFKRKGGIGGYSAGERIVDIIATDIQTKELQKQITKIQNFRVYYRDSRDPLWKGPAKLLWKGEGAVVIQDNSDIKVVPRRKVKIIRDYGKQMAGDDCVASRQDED
# Assay summary: Inhibition of strand transfer activity of HIV-1 integrase using [gamma-32P]-labeled DNA as substrate
Criterion: IC50 strictly less than 20 nM. Met: Satisfied. Not met: Not satisfied.

See these solved cases before continuing.
Entry smiles	Cat
CCCCCNc1c(C(=O)NCc2ccc(F)cc2F)c(=O)n(O)c2ncccc12	Not satisfied
COC(=O)[C@H](CO)Nc1c(C(=O)NCc2ccc(F)cc2F)c(=O)n(O)c2ncccc12	Satisfied
CC(C)Nc1c(C(=O)NCc2ccc(F)cc2F)c(=O)n(O)c2ncccc12	Satisfied
CNc1c(C(=O)NCc2ccc(F)cc2F)c(=O)n(O)c2ncccc12	Not satisfied
O=C(NCc1ccc(F)cc1F)c1c(Nc2ccccc2)c2cccnc2n(O)c1=O	Satisfied

Exercise: # check: IC50 < 20 nM for `O=C(NCc1ccc(F)cc1F)c1c(NC2CCCCCC2)c2cccnc2n(O)c1=O`
Solution: Not satisfied

Exercise: Now the molecule `O=C(NCc1ccc(F)cc1F)c1c(NCCc2ccccc2)c2cccnc2n(O)c1=O`
Solution: Not satisfied

Exercise: Now the molecule `COC(=O)[C@@H](CO)Nc1c(C(=O)NCc2ccc(F)cc2F)c(=O)n(O)c2ncccc12`
Solution: Satisfied

Exercise: Now the molecule `O=C(NCc1ccc(F)cc1F)c1c(Nc2ccc3c(c2)Cc2ccccc2-3)c2cccnc2n(O)c1=O`
Solution: Not satisfied
